# Tested on: MCF-7 (breast) human cancer cells
# testMethodNotes: MTT cytotoxicity assay, 48 h, breast cancer cells
# Type: cell-based
# statedConditions: MCF7, three experiments, read-out: IC50 ± SEM MCF-7
outcomeMeasure: pIC50
Scale for pIC50: -log10 of concentration given in mol/L; no unit attached.

Entry COC(=O)c1c(C)ncc2c1C(=O)C(Br)=C(NC(CC(C)C)C(=O)OC)C2=O (stereo not shown) ; assay system MCF-7 (breast) human cancer cells; pIC50 recorded at 6.30

====

# Tested on: AGS, SK-MES-1 and J82 human cancer cell lines
# testMethodNotes: MTT cytotoxicity, 72 h, panel summary (mean/range/selective index) over AGS, SK-MES-1, J82 vs MRC-5
# Assay type: cell-based
# statedConditions: MRC-5 vs AGS, SK-MES-1, J82
I would appreciate it if you labelled entries Criterion met when MSI: Mean Selective Index = IC50 values for fibroblasts/IC50 values tumor cells is 1 or higher, otherwise Criterion not met.

Solved cases below.
[[record]]
compound = "COC(=O)c1c(C)ncc2c1C(=O)C(NC(C(=O)OC)C(C)C)=C(Br)C2=O (centres unmarked) [Compound 13b]"
classification = "Criterion not met"

[[record]]
compound = "COC(=O)c1c(C)ncc2c1C(=O)C(Br)=C(NC(Cc1ccccc1)C(=O)OC)C2=O (centres unmarked)"
classification = "Criterion met"

[[record]]
compound = "COC(=O)c1c(C)ncc2c1C(=O)C(N[C@H](Cc1ccccc1)C(=O)OC)=CC2=O [Compound 10b]"
classification = "Criterion not met"

[[record]]
compound = "COC(=O)c1c(C)ncc2c1C(=O)C=C(N[C@H](C(=O)OC)C(C)C)C2=O"
classification = "Criterion met"

[[record]]
compound = "COC(=O)c1c(C)ncc2c1C(=O)C=C(N[C@@H](CCSC)C(=O)OC)C2=O"
classification = "Criterion met"

[[record]]
compound = "COC(=O)c1c(C)ncc2c1C(=O)C=C(N[C@@H](CC(C)C)C(=O)OC)C2=O"
classification = "Criterion met"


// query Could you please find out whether COC(=O)c1c(C)ncc2c1C(=O)C(Br)=C(NC(C(=O)OC)C(C)C)C2=O (centres unmarked) [Compound 13a] has MSI: Mean Selective Index = IC50 values for fibroblasts/IC50 values tumor cells that meets 1 or exceeds it?
// result Criterion met

// query Could you please find out whether COC(=O)c1c(C)ncc2c1C(=O)C=C(N[C@@H](Cc1c[nH]c3ccccc13)C(=O)OC)C2=O has MSI: Mean Selective Index = IC50 values for fibroblasts/IC50 values tumor cells that meets 1 or exceeds it?
// result Criterion met

// query Could you please find out whether COC(=O)c1c(C)ncc2c1C(=O)C(N[C@@H](CC(C)C)C(=O)OC)=CC2=O has MSI: Mean Selective Index = IC50 values for fibroblasts/IC50 values tumor cells that meets 1 or exceeds it?
// result Criterion not met

// query Could you please find out whether COC(=O)c1c(C)ncc2c1C(=O)C(Br)=C(NC(C)C(=O)OC)C2=O (centres unmarked) has MSI: Mean Selective Index = IC50 values for fibroblasts/IC50 values tumor cells that meets 1 or exceeds it?
// result Criterion met

====

# System: J82 human bladder carcinoma cells
# testMethodNotes: MTT cytotoxicity assay, 72 h, bladder carcinoma cells
# Type: cell-based
# statedConditions: 72 h exposure, six determinations, read-out: IC50 ± SEM J82
# Description: The series of isoquinolinequinone amino ester conjugates (Table 1) and the bromine derivatives (Table 2) were evaluated for their in vitro cytotoxic activities against normal human lung fibroblast (MRC-5) and three human cancer cells lines: human gastric adenocarcinoma (AGS), human lung cancer (SK-MES-1), and human bladder carcinoma (J82), in 72 h drug exposure assays. The cytotoxic activities of the new compounds were measured using conventional microculture tetrazolium reduction assays. […]
IC50 values by entry

[[record]]
molecule = "COC(=O)c1c(C)ncc2c1C(=O)C=C(N[C@@H](CCSC)C(=O)OC)C2=O"
outcomemeasure = "IC50"
experimentalvalue = "6 µM"


In plain terms, COC(=O)c1c(C)ncc2c1C(=O)C=C(N[C@@H](CC(C)C)C(=O)OC)C2=O has a documented IC50 of 7.65 µM

In plain terms, COC(=O)c1c(C)ncc2c1C(=O)C=C(N[C@@H](C)C(=O)OC)C2=O has a documented IC50 of 6.25 µM

In plain terms, COC(=O)c1c(C)ncc2c1C(=O)C(NC(C(=O)OC)C(C)C)=C(Br)C2=O (stereo not drawn) [Compound 13b] has a documented IC50 of 8.76 µM

In plain terms, COC(=O)c1c(C)ncc2c1C(=O)C(Br)=C(NC(C)C(=O)OC)C2=O (stereo not drawn) has a documented IC50 of 3.76 µM

In plain terms, COC(=O)c1c(C)ncc2c1C(=O)C(N[C@@H](CC(C)C)C(=O)OC)=CC2=O has a documented IC50 of 2.35 µM

====

IC50 values by entry
# Test system: J82 human bladder carcinoma cells
# testMethodNotes: MTT cytotoxicity assay, 72 h, bladder carcinoma cells
# Format: cell-based
# statedConditions: 72 h exposure, six determinations, read-out: IC50 ± SEM J82
Answer in µM, number only, no unit symbol.

[[record]]
compound = "COC(=O)c1c(C)ncc2c1C(=O)C(Br)=C(NC(Cc1ccccc1)C(=O)OC)C2=O (centres unmarked) [Compound 15]"
unittext = "µM"
experimentalvalue = 4.61

[[record]]
compound = "COC(=O)c1c(C)ncc2c1C(=O)C(Br)=C(NC(CC(C)C)C(=O)OC)C2=O (centres unmarked) [Compound 14]"
unittext = "µM"
experimentalvalue = 2.21

[[record]]
compound = "COC(=O)c1c(C)ncc2c1C(=O)C=C(N[C@H](C(=O)OC)C(C)C)C2=O [Compound 3a]"
unittext = "µM"
experimentalvalue = 7.49

[[record]]
compound = "COC(=O)c1c(C)ncc2c1C(=O)C(Br)=C(NC(C(=O)OC)C(C)C)C2=O (centres unmarked) [Compound 13a]"
unittext = "µM"
experimentalvalue = 4.01

[[record]]
compound = "COC(=O)c1c(C)ncc2c1C(=O)C(N[C@H](Cc1ccccc1)C(=O)OC)=CC2=O [Compound 10b]"
unittext = "µM"
experimentalvalue = 3.03


In plain terms, COC(=O)c1c(C)ncc2c1C(=O)C(N[C@@H](Cc1ccc(O)cc1)C(=O)OC)=CC2=O [Compound 7b] has a documented IC50 of 7.11

In plain terms, COC(=O)c1c(C)ncc2c1C(=O)C=C(N[C@@H](Cc1c[nH]c3ccccc13)C(=O)OC)C2=O [Compound 8a] has a documented IC50 of 7.56

In plain terms, COC(=O)c1c(C)ncc2c1C(=O)C=C(N[C@@H](Cc1ccccc1)C(=O)OC)C2=O [Compound 6a] has a documented IC50 of 4.68

====

# System: AGS human gastric adenocarcinoma cells
# testMethodNotes: MTT cytotoxicity assay, 72 h, gastric adenocarcinoma cells
# Assay type: cell-based
# statedConditions: 72 h exposure, six determinations, read-out: IC50 ± SEM AGS
IC50 values by entry
Answer in nM, number only, no unit symbol.

See these solved cases before continuing.
[[record]]
compound = "COC(=O)c1c(C)ncc2c1C(=O)C=C(N[C@@H](Cc1c[nH]c3ccccc13)C(=O)OC)C2=O"
systemundertest = "AGS human gastric adenocarcinoma cells"
outcomemeasure = "IC50"
experimentalvalue = 2540

[[record]]
compound = "COC(=O)c1c(C)ncc2c1C(=O)C(NC(C(=O)OC)C(C)C)=C(Br)C2=O (centres unmarked) [Compound 13b]"
systemundertest = "AGS human gastric adenocarcinoma cells"
outcomemeasure = "IC50"
experimentalvalue = 2700

[[record]]
compound = "COC(=O)c1c(C)ncc2c1C(=O)C(Br)=C(NC(Cc1ccccc1)C(=O)OC)C2=O (centres unmarked)"
systemundertest = "AGS human gastric adenocarcinoma cells"
outcomemeasure = "IC50"
experimentalvalue = 2080

[[record]]
compound = "COC(=O)c1c(C)ncc2c1C(=O)C(N[C@@H](CC(C)C)C(=O)OC)=CC2=O"
systemundertest = "AGS human gastric adenocarcinoma cells"
outcomemeasure = "IC50"
experimentalvalue = 1590

[[record]]
compound = "COC(=O)c1c(C)ncc2c1C(=O)C(N[C@H](Cc1ccccc1)C(=O)OC)=CC2=O [Compound 10b]"
systemundertest = "AGS human gastric adenocarcinoma cells"
outcomemeasure = "IC50"
experimentalvalue = 1980

[[record]]
compound = "COC(=O)c1c(C)ncc2c1C(=O)C=C(N[C@@H](C)C(=O)OC)C2=O"
systemundertest = "AGS human gastric adenocarcinoma cells"
outcomemeasure = "IC50"
experimentalvalue = 2250


Let us examine a further case.
In plain terms, COC(=O)c1c(C)ncc2c1C(=O)C=C(N[C@H](C(=O)OC)C(C)C)C2=O has a documented IC50 of 1940

====

# Tested on: MRC-5 normal human lung fibroblasts
# testMethodNotes: MTT cytotoxicity assay, 72 h, normal human lung fibroblasts
# Assay type: cell-based
# statedConditions: MRC5; normal human lung fibroblasts, MTT, 72 h exposure, six determinations; read-out: IC50 ± SEM MRC-5
Threshold 3 µM. IC50 below it: Criterion met. IC50 at it or above: Criterion not met.

Solved cases below.
[[record]]
molecule = "COC(=O)c1c(C)ncc2c1C(=O)C(Br)=C(NC(C)C(=O)OC)C2=O (centres unmarked)"
classification = "Criterion met"

[[record]]
molecule = "COC(=O)c1c(C)ncc2c1C(=O)C=C(N[C@@H](CCSC)C(=O)OC)C2=O"
classification = "Criterion not met"

[[record]]
molecule = "COC(=O)c1c(C)ncc2c1C(=O)C(Br)=C(NC(Cc1ccccc1)C(=O)OC)C2=O (centres unmarked)"
classification = "Criterion not met"

[[record]]
molecule = "COC(=O)c1c(C)ncc2c1C(=O)C(Br)=C(NC(CC(C)C)C(=O)OC)C2=O (centres unmarked)"
classification = "Criterion not met"

[[record]]
molecule = "COC(=O)c1c(C)ncc2c1C(=O)C(NC(C(=O)OC)C(C)C)=C(Br)C2=O (centres unmarked) [Compound 13b]"
classification = "Criterion met"


// query I'd appreciate it if you could check whether COC(=O)c1c(C)ncc2c1C(=O)C=C(N[C@@H](Cc1c[nH]c3ccccc13)C(=O)OC)C2=O has IC50 smaller than 3 µM.
// result Criterion not met

// query I'd appreciate it if you could check whether COC(=O)c1c(C)ncc2c1C(=O)C=C(N[C@@H](CC(C)C)C(=O)OC)C2=O has IC50 smaller than 3 µM.
// result Criterion not met

Value source: paper PMC6274474
